Test system: Human Dermal Fibroblasts (KMST-6)
assay_comment: ECM ELISA assay: elastin secretion by human dermal fibroblasts
Type: cell-based
condition_parameters: 5 μM, KMST-6, 48 hours, % compared to control set at 100%, normalized to total protein
Primed or numbered codes have the meaning given here. The star is where a group is joined. Ac3‑α‑GalNAc = per-acetylated α-N-acetylgalactosamine (O-glycoside), CC(=O)N[C@@H]1[C@@H](OC(C)=O)[C@@H](OC(C)=O)[C@@H](COC(C)=O)O[C@@H]1*; Ac3‑α‑GalNAc″ = peracetylated alpha-N-acetylgalactosamine, CC(=O)N[C@@H]1[C@@H](OC(C)=O)[C@@H](OC(C)=O)[C@@H](COC(C)=O)O[C@@H]1*; Ac3‑β‑GlcNAc = per-acetylated β-N-acetylglucosamine, CC(=O)N[C@@H]1[C@@H](OC(C)=O)[C@H](OC(C)=O)[C@@H](COC(C)=O)O[C@H]1*; Ac3‑β‑Xyl = triacetyl-β-xyloside (peracetylated β-xylose), CC(=O)O[C@@H]1[C@@H](OC(C)=O)[C@H](OC(C)=O)CO[C@H]1*; αGalNAc = CC(=O)N[C@@H]1[C@@H](O)[C@@H](O)[C@@H](CO)O[C@@H]1*; βGlcNAc = CC(=O)N[C@@H]1[C@@H](O)[C@H](O)[C@@H](CO)O[C@H]1*; αMan = OC[C@H]1O[C@H](*)[C@@H](O)[C@@H](O)[C@@H]1O; βGlc = OC[C@H]1O[C@@H](*)[C@H](O)[C@@H](O)[C@@H]1O; Palmitoyl = CCCCCCCCCCCCCCCC(=O)*

>  <substance>
Pal-KTT(Ac3-α-GalNAc)KS-OH (Palmitoyl-KTT(Ac3‑α‑GalNAc)KS-OH; SMILES CCCCCCCCCCCCCCCC(=O)N[C@@H](CCCCN)C(=O)N[C@H](C(=O)N[C@H](C(=O)N[C@@H](CCCCN)C(=O)N[C@@H](CO)C(=O)O)[C@@H](C)O[C@H]1O[C@H](COC(C)=O)[C@H](OC(C)=O)[C@H](OC(C)=O)[C@H]1NC(C)=O)[C@@H](C)O; listed as Homo sapiens) [GP001-9]

>  <result_units>
%

>  <Elastin Secretion at 48 hours>
103.7

$$$$
>  <substance>
Pal-KTTKS(α-GalNAc)-OH (Palmitoyl-KTTKS(αGalNAc)-OH; SMILES CCCCCCCCCCCCCCCC(=O)N[C@@H](CCCCN)C(=O)N[C@H](C(=O)N[C@H](C(=O)N[C@@H](CCCCN)C(=O)N[C@@H](CO[C@H]1O[C@H](CO)[C@H](O)[C@H](O)[C@H]1NC(C)=O)C(=O)O)[C@@H](C)O)[C@@H](C)O; listed as Homo sapiens) [GP002-2]

>  <result_units>
%

>  <Elastin Secretion at 48 hours>
143.8

$$$$
>  <substance>
Pal-KTTKS(β-GlcNAc)-OH (Palmitoyl-KTTKS(βGlcNAc)-OH; SMILES CCCCCCCCCCCCCCCC(=O)N[C@@H](CCCCN)C(=O)N[C@H](C(=O)N[C@H](C(=O)N[C@@H](CCCCN)C(=O)N[C@@H](CO[C@@H]1O[C@H](CO)[C@@H](O)[C@H](O)[C@H]1NC(C)=O)C(=O)O)[C@@H](C)O)[C@@H](C)O; listed as Homo sapiens) [GP002-6]

>  <result_units>
%

>  <Elastin Secretion at 48 hours>
150.7

$$$$
>  <substance>
Pal-KS(β-Glc)TKS-OH (Palmitoyl-KS(βGlc)TKS-OH; SMILES CCCCCCCCCCCCCCCC(=O)N[C@@H](CCCCN)C(=O)N[C@@H](CO[C@@H]1O[C@H](CO)[C@@H](O)[C@H](O)[C@H]1O)C(=O)N[C@H](C(=O)N[C@@H](CCCCN)C(=O)N[C@@H](CO)C(=O)O)[C@@H](C)O; listed as Homo sapiens) [GP003-4]

>  <result_units>
%

>  <Elastin Secretion at 48 hours>
136.8

$$$$
>  <substance>
Pal-KTTKS(Ac3-β-Xyl)-OH (Palmitoyl-KTTKS(Ac3‑β‑Xyl)-OH; SMILES CCCCCCCCCCCCCCCC(=O)N[C@@H](CCCCN)C(=O)N[C@H](C(=O)N[C@H](C(=O)N[C@@H](CCCCN)C(=O)N[C@@H](CO[C@@H]1OC[C@@H](OC(C)=O)[C@H](OC(C)=O)[C@H]1OC(C)=O)C(=O)O)[C@@H](C)O)[C@@H](C)O; listed as Homo sapiens) [GP004-11]

>  <result_units>
%

>  <Elastin Secretion at 48 hours>
178.8

$$$$
>  <substance>
Pal-KT(α-Man)TKS-OH (Palmitoyl-KT(αMan)TKS-OH; SMILES CCCCCCCCCCCCCCCC(=O)N[C@@H](CCCCN)C(=O)N[C@H](C(=O)N[C@H](C(=O)N[C@@H](CCCCN)C(=O)N[C@@H](CO)C(=O)O)[C@@H](C)O)[C@@H](C)O[C@H]1O[C@H](CO)[C@@H](O)[C@H](O)[C@@H]1O; listed as Homo sapiens) [GP003-2]

>  <result_units>
%

>  <Elastin Secretion at 48 hours>
121.0

$$$$
>  <substance>
Pal-KTTKS(Ac3-α-GalNAc)-OH (Palmitoyl-KTTKS(Ac3‑α‑GalNAc″)-OH; SMILES CCCCCCCCCCCCCCCC(=O)N[C@@H](CCCCN)C(=O)N[C@H](C(=O)N[C@H](C(=O)N[C@@H](CCCCN)C(=O)N[C@@H](CO[C@H]1O[C@H](COC(C)=O)[C@H](OC(C)=O)[C@H](OC(C)=O)[C@H]1NC(C)=O)C(=O)O)[C@@H](C)O)[C@@H](C)O; listed as Homo sapiens) [GP002-1]

>  <result_units>
%

>  <Elastin Secretion at 48 hours>
144.8

$$$$
>  <substance>
Pal-KTTKS(Ac3-β-GlcNAc)-OH (Palmitoyl-KTTKS(Ac3‑β‑GlcNAc)-OH; SMILES CCCCCCCCCCCCCCCC(=O)N[C@@H](CCCCN)C(=O)N[C@H](C(=O)N[C@H](C(=O)N[C@@H](CCCCN)C(=O)N[C@@H](CO[C@@H]1O[C@H](COC(C)=O)[C@@H](OC(C)=O)[C@H](OC(C)=O)[C@H]1NC(C)=O)C(=O)O)[C@@H](C)O)[C@@H](C)O; listed as Homo sapiens) [GP002-5]

>  <result_units>
%

>  <Elastin Secretion at 48 hours>
159.3

$$$$
>  <substance>
Pal-KT(α-GalNAc)-T(α-GalNAc)KS-OH (Palmitoyl-KT(αGalNAc)T(αGalNAc)KS-OH; SMILES CCCCCCCCCCCCCCCC(=O)N[C@@H](CCCCN)C(=O)N[C@H](C(=O)N[C@H](C(=O)N[C@@H](CCCCN)C(=O)N[C@@H](CO)C(=O)O)[C@@H](C)O[C@H]1O[C@H](CO)[C@H](O)[C@H](O)[C@H]1NC(C)=O)[C@@H](C)O[C@H]1O[C@H](CO)[C@H](O)[C@H](O)[C@H]1NC(C)=O; listed as Homo sapiens) [GP001-14]

>  <result_units>
%

>  <Elastin Secretion at 48 hours>
88.00

$$$$
